# Tested on: MALME-3M melanoma
# PROCEDURE DETAILS: NCI-60 one-dose screen, 48 h
# ASSAY SETUP: 10 µM unless noted
# Description: Cells are grown in 96 well plates and exposed to the test compound for 48 hours. Compounds are tested at a single concentration, which is 10^-5 M for most compounds. The reported endpoint is percent growth (GI% or GIPRCNT), where numbers from 0 - 100% represent growth inhibition, and numbers from -100% - 0 represent cell death. For example, a value of 40 represents 60% growth inhibition. A value of 0 means no net growth occurred over the course of the experiment. […]
About 83,000 compounds went through this panel and 20% of them were active in at least one assay; those are over-represented in the sample as a whole. Active and inactive are the calls of the source. How the source made its calls: active means growth percent below 10; inactive means the rest.
Please reply with one of these outcomes: active, inactive

For `COc1ccc(/C=N/NC(=O)c2[nH]c3ccc(Br)cc3c2-c2ccccc2)s1` , which call appears in the assay record?
inactive

For `CN(C)S(=O)(=O)c1oc(-c2ccccc2)nc1C#N` , which call appears in the assay record?
active

For `CSc1ccc2c(c1)N(C(=O)/C(C#N)=C/c1c[nH]c3ccccc13)c1ccccc1S2` , which call appears in the assay record?
inactive

For `Cc1nc2cnc(N)c(C#Cc3cncc(C(=O)Nc4ccc(Cl)c(C(F)(F)F)c4)c3)c2nc1C` , which call appears in the assay record?
inactive

For `Oc1c(Cl)cc(Cl)c2ccc(CN3CCCCC3)nc12` , which call appears in the assay record?
inactive

----------
Catalogue of growth readings, one per entry.
# Tested on: SK-MEL-28 melanoma
# PROCEDURE DETAILS: NCI-60 one-dose screen, 48 h (100 = growth as untreated, 0 = no growth, -100 = all killed)
# ASSAY SETUP: 10 µM unless noted
The panel holds about 83,000 compounds, 20% with a hit somewhere; the sample as a whole holds those more often.
Write the value in % as a bare number.

COMPOUND STRUCTURE STRING: O=C(N/N=C/c1cccs1)c1[nH]c2ccc(Br)cc2c1-c1ccccc1
SYSTEM UNDER TEST: SK-MEL-28 melanoma
OBSERVED PROPERTY: growth
REPORTED: 60.7

COMPOUND STRUCTURE STRING: COc1cc(-c2nc3ccc(-c4nnc(SCC(=O)Nc5ccc(C(=O)/C=C/c6ccc(Cl)cc6)cc5)o4)cc3[nH]2)cc(OC)c1OC
SYSTEM UNDER TEST: SK-MEL-28 melanoma
OBSERVED PROPERTY: growth
REPORTED: 102

COMPOUND STRUCTURE STRING: COc1ccc(C(=O)/C=C/c2ccc(Oc3nc(NCCO)nc(N4CCOCC4)n3)c(OC)c2)cc1
SYSTEM UNDER TEST: SK-MEL-28 melanoma
OBSERVED PROPERTY: growth
REPORTED: 97.3

Now examine the next entry.
I'm curious: which growth was measured for `NS(=O)(=O)c1cccc(Nc2nc(SCC(=O)c3ccc([N+](=O)[O-])cc3)nc3ccccc23)c1` tested on SK-MEL-28 melanoma?
60.3

----------
# Test system: SN12C renal
# PROCEDURE DETAILS: NCI-60 one-dose screen, 48 h (100 = growth as untreated, 0 = no growth, -100 = all killed)
# ASSAY SETUP: 10 µM unless noted
About 83,000 compounds went through this panel and 20% of them were active in at least one assay; those are over-represented in the sample as a whole.
Catalogue of growth readings, one per entry.
Write the value in % as a bare number.

Some entries whose results are on file:
COMPOUND: COc1cc(/C=C/C(=O)c2ccc(C(F)(F)F)cc2)ccc1Oc1nc(NCCO)nc(N2CCOCC2)n1
SYSTEM UNDER TEST: SN12C renal
REPORTED: 86.9
--
COMPOUND: Cc1ccc(-c2nc(C(Cl)Cl)nc3cc(-c4ccccc4)nn23)cc1
SYSTEM UNDER TEST: SN12C renal
REPORTED: 51.4
--
COMPOUND: CC(=O)Oc1ccccc1C(=O)Nc1cc(C(C)C)ccc1C
SYSTEM UNDER TEST: SN12C renal
REPORTED: 8.31

# growth lookup, item COC1CCN(Cc2ccc3c(NNC(=O)c4cnccn4)nc4cc(F)ccc4n23)C1 (stereo unspecified)
24.1

# growth lookup, item COc1cc2nc(-c3ccc(C)cc3)cc(OCCCNCC3CCCO3)c2cc1OC (stereo unspecified)
57.3

# growth lookup, item `Nc1c(C(=O)c2ccc(Br)cc2)oc2nc(-c3cnccn3)cc(-c3cccs3)c12`
97.9

These data points were gathered from PubChem BioAssay (NCI).
